Data origin, for the record: patent US8026218

Overview of reported pKi across a group of binders:
Test system: T1, human NK1 receptor (human, UniProt P25103 1-407)
T1 construct: whole, on cells; membrane preparations of the transfected cells were used; also called hNK1; human neurokinin-1 receptor
T1 sequence (P25103 whole entry): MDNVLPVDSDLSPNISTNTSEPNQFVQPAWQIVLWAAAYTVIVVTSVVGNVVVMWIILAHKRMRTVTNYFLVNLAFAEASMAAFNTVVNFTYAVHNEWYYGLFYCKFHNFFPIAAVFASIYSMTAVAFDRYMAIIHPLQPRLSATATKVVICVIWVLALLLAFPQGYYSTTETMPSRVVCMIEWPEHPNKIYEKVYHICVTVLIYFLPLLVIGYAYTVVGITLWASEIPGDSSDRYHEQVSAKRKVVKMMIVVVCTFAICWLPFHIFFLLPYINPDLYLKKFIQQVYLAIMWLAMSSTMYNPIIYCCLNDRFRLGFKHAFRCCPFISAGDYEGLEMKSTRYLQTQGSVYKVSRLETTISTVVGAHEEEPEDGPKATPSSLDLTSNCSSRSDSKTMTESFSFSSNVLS
Experiment: competition vs [3H]Substance P, hNK1 CHO cell membranes
pKi: −log10 of the molar value. Square brackets hold non-standard residues; d marks the D form. Ends that are not written are not given here. * marks the point of attachment. NH(3,5-(CF3)2-benzyl) = FC(F)(F)c1cc(CN*)cc(C(F)(F)F)c1; OBzl(3,5-(CF3)2) = FC(F)(F)c1cc(CO*)cc(C(F)(F)F)c1; Dmt = Cc1cc(O)cc(C)c1C[C@H](N)C(=O)O; NHBn = c1ccc(CN*)cc1
Recorded endpoint: pKi

[[record]]
binder = "[Dmt][dA]GFMPLW-{NH(3,5-(CF3)2-benzyl)} (also called TY032) [DmtDAlaGlyPheMetProLeuTrpNHBn(CF3)2]"
reported_value = 11.10

[[record]]
binder = "[Dmt][dA]GFMPLW-NHBn (also called TY034) [DmtDAlaGlyPheMetProLeuTrpNHBn]"
reported_value = 8.62

[[record]]
binder = "[Dmt][dA]GFMPLW-{OBzl(3,5-(CF3)2)} (also called TY033) [DmtDAlaGlyPheMetProLeuTrpOBn(CF3)2]"
reported_value = 8.92

